# assayedSystem: α1A Human Adrenergic Receptor (Homo sapiens, UniProt P25100)
# Construct: The entire coding region of α1A (1719 bp); expressed in transfected cells
# Sequence (P25100 whole entry): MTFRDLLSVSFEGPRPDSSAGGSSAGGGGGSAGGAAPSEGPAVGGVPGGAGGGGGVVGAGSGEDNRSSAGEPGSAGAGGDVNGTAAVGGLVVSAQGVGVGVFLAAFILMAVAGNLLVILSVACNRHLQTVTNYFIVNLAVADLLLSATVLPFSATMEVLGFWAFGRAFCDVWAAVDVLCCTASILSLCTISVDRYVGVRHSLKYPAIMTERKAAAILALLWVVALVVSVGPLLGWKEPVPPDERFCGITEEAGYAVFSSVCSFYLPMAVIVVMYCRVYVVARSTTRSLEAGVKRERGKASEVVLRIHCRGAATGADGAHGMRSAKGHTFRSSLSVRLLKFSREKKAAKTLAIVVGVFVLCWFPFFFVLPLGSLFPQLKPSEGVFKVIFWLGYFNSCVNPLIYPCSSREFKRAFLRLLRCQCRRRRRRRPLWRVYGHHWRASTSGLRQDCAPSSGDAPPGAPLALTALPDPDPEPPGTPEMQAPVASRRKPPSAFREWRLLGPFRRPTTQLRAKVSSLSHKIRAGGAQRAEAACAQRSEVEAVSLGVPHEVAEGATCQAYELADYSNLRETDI
# assay: Radioligand binding, [3H]prazosin, cloned human α1A adrenergic receptor
# protocolConditions: [3H]prazosin, cloned human α1A receptor, LM(tk−) cell membranes; read-out: pKi alpha-1 1a (converted)
Counter-ions that a name gives are not always drawn.
measureName: log10(Ki) (log10 of the value in nM)

>>> result("CCC1=C(C(=O)OCCC#N)C(c2ccc([N+](=O)[O-])cc2)C(C(=O)NCCCN2CCC(c3ccccc3)(c3ccccc3)CC2)=C(COC)N1 (stereo not drawn)")
2.70
>>> result("CCC1=C(C(N)=O)C(c2ccc([N+](=O)[O-])cc2)C(C(=O)NCCCN2CCN(c3ccccc3OC)CC2)=C(CC)N1 (stereo not drawn)")
1.89
>>> result("CCC1=C(C(=O)O)C(c2ccc([N+](=O)[O-])cc2)C(C(=O)NCCCN2CCC(c3ccccc3)(c3ccccc3)CC2)=C(COC)N1 (stereo not drawn)")
2.92
>>> result("CCNC(=O)C1=C(CC)NC(COCCN=[N+]=[N-])=C(C(=O)NCCCN2CCC(c3ccccc3)(c3ccccc3)CC2)C1c1ccc([N+](=O)[O-])cc1 (stereo not drawn)")
2.58
>>> result("CCNC(=O)C1=C(CC)NC(CC)=C(C(=O)NCCCN2CCC(c3ccccc3)(c3ccc(OC)cc3)CC2)C1c1ccc([N+](=O)[O-])cc1 (stereo not drawn)")
3.25
>>> result("CCC1=C(C(N)=O)C(c2ccc([N+](=O)[O-])cc2)C(C(=O)NCCCN2CCC(c3ccccc3)CC2)=C(CC)N1 (stereo not drawn)")
2.38
>>> result("CC1=C(C(=O)OCC[Si](C)(C)C)C(c2ccc([N+](=O)[O-])cc2)C(C(=O)NCCCN2CCC(c3ccccc3)(c3ccccc3)CC2)=C(COCCN=[N+]=[N-])N1 (stereo not drawn)")
2.69
>>> result("CCC1=C(C(=O)NC)C(c2ccc([N+](=O)[O-])cc2)C(C(=O)NCCCN2CCC(C(c3ccccc3)c3ccccc3)CC2)=C(CC)N1 (stereo not drawn)")
2.93
>>> result("CC1=C(C(N)=O)C(c2ccc([N+](=O)[O-])cc2)C(C(=O)NCCCN2CCC(c3ccccc3)(c3ccccc3)CC2)=C(COCCN=[N+]=[N-])N1 (stereo not drawn)")
2.05
>>> result("CCC1=C(C(N)=O)C(c2ccc([N+](=O)[O-])cc2)C(C(=O)NCCCN2CCN(c3ccccc3)CC2)=C(CC)N1 (stereo not drawn) [Example 104, hydrochloride hydrate]")
2.12
>>> result("COc1ccccc1N1CCN(CCCNC(=O)C2=C(C)NC(C)=C(C(N)=O)C2c2ccc([N+](=O)[O-])cc2)CC1 (stereo not drawn)")
1.76
>>> result("CCC1=C(C(=O)NC)C(c2ccc([N+](=O)[O-])cc2)C(C(=O)NCCCN2CCC(C(N)=O)(c3ccccc3)CC2)=C(CC)N1 (stereo not drawn)")
4.25

----------
The entries below come with measured log10 of Ki values attached.
# assayedSystem: α1B Human Adrenergic Receptor (Homo sapiens, UniProt P35368)
# Construct: The entire coding region of α1B (1563 bp); expressed in transfected cells
# Sequence (P35368 1-520): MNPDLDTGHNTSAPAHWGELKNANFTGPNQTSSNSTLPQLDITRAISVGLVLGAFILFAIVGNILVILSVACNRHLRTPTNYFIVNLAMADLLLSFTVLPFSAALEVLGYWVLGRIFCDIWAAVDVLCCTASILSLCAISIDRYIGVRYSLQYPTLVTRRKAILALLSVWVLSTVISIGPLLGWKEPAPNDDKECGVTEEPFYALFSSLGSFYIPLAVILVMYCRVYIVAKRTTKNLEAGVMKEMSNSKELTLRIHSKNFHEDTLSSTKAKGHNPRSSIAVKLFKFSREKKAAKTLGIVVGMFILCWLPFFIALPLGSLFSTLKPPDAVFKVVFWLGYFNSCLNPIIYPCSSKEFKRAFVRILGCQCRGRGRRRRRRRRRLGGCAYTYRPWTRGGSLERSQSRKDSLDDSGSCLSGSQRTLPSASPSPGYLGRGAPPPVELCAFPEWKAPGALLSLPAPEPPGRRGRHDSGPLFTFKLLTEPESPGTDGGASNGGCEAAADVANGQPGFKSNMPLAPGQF
# assay: Radioligand binding, [3H]prazosin, cloned human α1B adrenergic receptor
# protocolConditions: cloned human receptor in LM(tk-) cell membranes, SEM and n in lines below, read-out: pKi alpha-1 1b (converted)
Counter-ions that a name gives are not always drawn.
measureName: log10 of Ki (log10 of the value in nM)

>>> result("COC(=O)C1=C(C)NC(C)=C(C(=O)NCCCN2CCC(c3ccccc3)CC2)C1c1cccc([N+](=O)[O-])c1 (stereo not shown) [Example 30]")
1.73
>>> result("COC(=O)C1=C(C)NC(C)=C(C(=O)NCCCN2CCC(c3ccccc3)CC2)C1c1ccc([N+](=O)[O-])cc1 (single isomer, unassigned; (-)) [(−)-45, hydrochloride hemihydrate]")
0.96
>>> result("COC(=O)C1=C(C)NC(C)=C(C(=O)NCCCN2CCC(c3ccccc3)(c3ccccc3)CC2)C1c1ccc(I)cc1 (stereo not shown) [Example 13]")
2.22
>>> result("COC(=O)C1=C(C)NC(C)=C(C(=O)NCCCN2CCC(c3ccccc3)(c3ccccc3)CC2)C1c1ccc(Br)cc1 (stereo not shown) [Example 15]")
2.22
>>> result("COC(=O)C1=C(C)NC(C)=C(C(=O)NCCCN2CCC(c3ccccc3)(c3ccccc3)CC2)C1c1ccc(C)cc1 (stereo not shown) [Example 19]")
2.43
>>> result("COC(=O)C1=C(C)NC(C)=C(C(=O)NCCN2CCC(c3ccccc3)(c3ccccc3)CC2)C1c1ccc([N+](=O)[O-])cc1 (stereo not shown) [Example 52, hydrochloride hemihydrate]")
1.89
>>> result("COC(=O)C1=C(C)NC(C)=C(C(=O)NCCCN2CCC(c3ccccc3)(c3ccccc3)CC2)C1c1ccc(Cl)cc1 (stereo not shown) [Example 10]")
2.09
>>> result("COC(=O)C1=C(C)NC(C)=C(C(=O)NCCCN2CCC(c3ccccc3)(c3ccccc3)CC2)C1c1ccc2c(c1)OCO2 (stereo not shown) [Example 11]")
2.36
>>> result("COC(=O)C1=C(C)NC(C)=C(C(=O)NCCCN2CCC(c3ccccc3)(c3ccccc3)CC2)C1c1ccc(C#N)cc1 (stereo not shown) [Example 12]")
2.18
>>> result("COc1cc2c(cc1OC)CN(CCCNC(=O)C1=C(C)NC(C)=C(C(N)=O)C1c1ccc([N+](=O)[O-])cc1)CC2 (stereo not shown) [Example 58, hydrochloride]")
3.36
>>> result("CC1=C(C(N)=O)C(c2cccc([N+](=O)[O-])c2)C(C(=O)NCCCN2CCC(c3ccccc3)CC2)=C(C)N1 (stereo not shown) [Example 62]")
2.50
>>> result("COC(=O)C1=C(C)NC(C)=C(C(=O)OCCCN(C)C)C1c1ccc([N+](=O)[O-])cc1.Cl (stereo not shown) [Example 44, hydrochloride]")
3.92
>>> result("CCC1=C(C(=O)NCCCN2CCC(c3ccccc3)CC2)C(c2ccc([N+](=O)[O-])cc2)C(C(=O)OC)=C(C)N1 (stereo not shown) [Example 74, hydrochloride hydrate]")
1.28
